- Test protocol: Cell viability (trypan blue, Countess automated cell counter), hLEC
- Type: cell-based, human
- Experimental context: human; 20 μM, hLEC; read-out: reduction of hLEC viability
Value type: cytotoxicity at 20 μM

cytotoxicity at 20 μM reported for this compound CC(C)(C(=O)NCC(F)(F)C(F)(F)F)C(=O)N[C@@H]1C(=O)Nc2ccccc2-c2ccccc21 [RO4929097] : ~30%
